- targetEntity: SCRIB_1, Q14160
- Sequence (Q14160 718-814): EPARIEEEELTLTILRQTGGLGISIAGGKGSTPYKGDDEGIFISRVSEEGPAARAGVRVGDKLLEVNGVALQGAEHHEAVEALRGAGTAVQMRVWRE
- assayComment: holdup assay
- Parameters: key: below the threshold = too weak to quantify, mostly under pKd 3.1 to 4
- runParameters: plain residues with an end cap or a label only (N-terminal biotin on a linker: ado-ado)
resultType: pKd

* LRSPRTPSEV [OR10G3, Q8NGC4] | below the threshold
* HSGYRLNDYV [CLDN14, O95500] | below the threshold
* PDGQCTVTEV [RNF146, Q9NTX7] | 4.68
* SNAGNTATKA [NOSTRIN, Q8IVI9] | below the threshold
